EXPERIMENTAL TARGET: Biotin--[acetyl-CoA-carboxylase] ligase (Mycobacterium tuberculosis (strain ATCC 25618 / H37Rv)) (UniProt I6YFP0)
Sequence (I6YFP0 whole entry): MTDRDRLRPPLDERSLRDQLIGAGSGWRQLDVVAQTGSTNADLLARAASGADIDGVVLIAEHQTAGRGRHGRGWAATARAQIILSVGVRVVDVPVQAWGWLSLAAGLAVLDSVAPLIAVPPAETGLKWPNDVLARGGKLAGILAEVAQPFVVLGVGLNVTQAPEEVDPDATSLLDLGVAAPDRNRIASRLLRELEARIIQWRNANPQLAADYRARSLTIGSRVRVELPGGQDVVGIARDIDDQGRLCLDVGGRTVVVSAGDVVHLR
TEST NAME: Binding affinity to Mycobacterium tuberculosis BPL assessed as change in entropy by isothermal titration calorimetry

COMPOUND | MEASUREMENT UNIT | TdeltaS
CC(CCC[C@@H]1SC[C@@H]2NC(=O)N[C@@H]21)C(=O)[N-]S(=O)(=O)NC[C@H]1O[C@@H](n2cnc3c(N)ncnc32)[C@H](O)[C@@H]1O.[Na+] (stereo partly specified) | kcal/mol | 1.5
Nc1ncnc2c1ncn2[C@@H]1O[C@H](CNS(=O)(=O)NC(=S)NCCCC[C@@H]2SC[C@@H]3NC(=O)N[C@@H]32)[C@@H](O)[C@H]1O | kcal/mol | 4.3
Nc1cccc2c1ncn2[C@@H]1O[C@H](CNS(=O)(=O)NC(=O)CCCC[C@@H]2SC[C@@H]3NC(=O)N[C@@H]32)[C@@H](O)[C@H]1O | kcal/mol | 4.5
Nc1ncnc2c1ncn2[C@@H]1O[C@H](CNS(=O)(=O)[N-]C(=O)NCCC[C@@H]2SC[C@@H]3NC(=O)N[C@@H]32)[C@@H](O)[C@H]1O.[Na+] | kcal/mol | 0.5
Nc1ncnc2c1ncn2[C@@H]1O[C@H](CNS(=O)(=O)NC(=O)NCCCCC[C@@H]2SC[C@@H]3NC(=O)N[C@@H]32)[C@@H](O)[C@H]1O | kcal/mol | 0.48
C[C@@H]1NC(=O)N[C@@H]1CCCCCC(=O)NS(=O)(=O)NC[C@H]1O[C@@H](n2cnc3c(N)cccc32)[C@H](O)[C@@H]1O | kcal/mol | 3

The measurements presented in this section are drawn from ChEMBL document CHEMBL6153072.
